Data provenance is patent US10364256B2.

- measurement_target: full length Keap1 protein / full length NRF2 protein (Homo sapiens)
- Construct: full length NRF2 protein and full length Keap1 protein (Keap1 exists a dimer) are used; His
- assay_summary: NRF2-Keap1 TR-FRET Assay
- Type: binding
- protocol_conditions: 25 nM Keap1-FlagHis and 50 nM biotin-NRF2 added
pIC50: −log10 of the molar value.
Kindly supply the reported pIC50 values for the records listed here.

molecule="CC(Oc1cccc(-c2cccc(-n3ncc(C(=O)O)c3[C@H]3C[C@@H]3c3cn(C)nn3)c2)c1)c1ccc(-c2ccccc2)cc1 (mixture of isomers)" measurement_target="full length Keap1 protein / full length NRF2 protein (Homo sapiens)" measured_attribute=pIC50 measurement="5.00 to 6.00"
molecule=CCCN(CC1CC1)C(=O)c1cccc(-c2cccc(-n3ncc(C(=O)O)c3C3CC3)c2)c1C measurement_target="full length Keap1 protein / full length NRF2 protein (Homo sapiens)" measured_attribute=pIC50 measurement="5.00 to 6.00"
molecule=CN(C(=O)c1cccc(-c2cccc(-n3ncc(C(=O)O)c3C3CC3)c2)c1F)C1CCCCC1 measurement_target="full length Keap1 protein / full length NRF2 protein (Homo sapiens)" measured_attribute=pIC50 measurement="5.00 to 6.00"
molecule=CCC[C@@H]1CO[C@@H](C)CN1C(=O)c1cccc(-c2cccc(-n3ncc(C(=O)O)c3C3CC3)c2)c1F measurement_target="full length Keap1 protein / full length NRF2 protein (Homo sapiens)" measured_attribute=pIC50 measurement="6.00 to 7.00"
molecule=CC1(C)CCc2cnn(-c3cccc(-c4cccc(-n5ncc(C(=O)O)c5C(F)(F)F)c4)c3)c21 measurement_target="full length Keap1 protein / full length NRF2 protein (Homo sapiens)" measured_attribute=pIC50 measurement="4.00 to 5.00"
molecule="Cn1cc([C@@H]2C[C@H]2c2c(C(=O)O)cnn2-c2cccc(-c3cccc(OCC4CCSCC4)c3)c2)nn1 (racemic)" measurement_target="full length Keap1 protein / full length NRF2 protein (Homo sapiens)" measured_attribute=pIC50 measurement="6.00 to 7.00"

Proceed to the following item.
*Q* Which measured pIC50 value corresponds to Cn1cc(C2CC2c2c(C(=O)O)cnn2-c2cccc(-c3cccc(SCC4CCCCC4)c3)c2)nn1 (stereo not shown) ?
*A* 6.00 to 7.00

====

- measurement_target: full length Keap1 protein / full length NRF2 protein (Homo sapiens, UniProt Q14145)
- Construct: full length NRF2 protein and full length Keap1 protein (Keap1 exists a dimer) are used; His
- Sequence (Q14145 whole entry): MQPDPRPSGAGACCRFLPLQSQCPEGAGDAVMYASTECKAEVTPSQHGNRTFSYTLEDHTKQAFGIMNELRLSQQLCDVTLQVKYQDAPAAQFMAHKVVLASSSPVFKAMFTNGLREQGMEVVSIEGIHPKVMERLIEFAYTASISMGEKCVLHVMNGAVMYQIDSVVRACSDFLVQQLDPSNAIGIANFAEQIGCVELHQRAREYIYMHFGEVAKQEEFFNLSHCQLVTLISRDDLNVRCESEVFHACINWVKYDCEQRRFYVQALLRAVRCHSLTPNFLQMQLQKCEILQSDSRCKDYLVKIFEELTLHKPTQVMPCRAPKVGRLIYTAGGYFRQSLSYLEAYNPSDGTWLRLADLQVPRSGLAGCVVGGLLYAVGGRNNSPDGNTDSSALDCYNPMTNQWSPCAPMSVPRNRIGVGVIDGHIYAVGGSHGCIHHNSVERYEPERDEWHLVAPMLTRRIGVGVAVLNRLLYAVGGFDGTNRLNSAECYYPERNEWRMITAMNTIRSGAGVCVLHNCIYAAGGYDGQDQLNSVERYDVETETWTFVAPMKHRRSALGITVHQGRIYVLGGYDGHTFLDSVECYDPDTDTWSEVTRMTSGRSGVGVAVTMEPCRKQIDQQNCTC
- assay_summary: NRF2-Keap1 TR-FRET Assay
- Assay type: binding
- protocol_conditions: 25 nM Keap1-FlagHis and 50 nM biotin-NRF2 added
Kindly supply the reported IC50 values for the records listed here.

Some compounds with recorded IC50:
compound=CN(C)C(=O)c1cccc(-c2cccc(-n3ncc(C(=O)O)c3C3CCCC3)c2)c1F measurement_target="full length Keap1 protein / full length NRF2 protein (Homo sapiens, UniProt Q14145)" measured_attribute=IC50 measurement="10000 to 100000 nM"
compound="CC(Oc1cccc(-c2cccc(-n3ncc(C(=O)O)c3[C@H]3C[C@@H]3c3cn(C)nn3)c2)c1)c1cccc(-c2ccccc2)c1 (mixture of isomers)" measurement_target="full length Keap1 protein / full length NRF2 protein (Homo sapiens, UniProt Q14145)" measured_attribute=IC50 measurement="100 to 1000 nM"
compound="CC(Oc1cccc(-c2cccc(-n3ncc(C(=O)O)c3[C@H]3C[C@@H]3c3cn(C)nn3)c2)c1)C1CCCCC1 (stereo partly shown) [Example 165]" measurement_target="full length Keap1 protein / full length NRF2 protein (Homo sapiens, UniProt Q14145)" measured_attribute=IC50 measurement="10 to 100 nM"
compound="CCCC1CCCN1C(=O)c1cccc(-c2cccc(-n3ncc(C(=O)O)c3C3CC3)c2)c1F (stereo not shown)" measurement_target="full length Keap1 protein / full length NRF2 protein (Homo sapiens, UniProt Q14145)" measured_attribute=IC50 measurement="100 to 1000 nM"
compound="COC(c1cccc(-c2cccc(-n3ncc(C(=O)O)c3C3CC3c3cn(C)nn3)c2)c1)C1CCCCC1 (stereo not shown)" measurement_target="full length Keap1 protein / full length NRF2 protein (Homo sapiens, UniProt Q14145)" measured_attribute=IC50 measurement="100 to 1000 nM"
compound="Cn1cc([C@H]2C[C@@H]2c2c(C(=O)O)cnn2-c2cccc(-c3cccc(OC[C@H]4CC[C@H](Cl)CC4)c3)c2)nn1 (racemic)" measurement_target="full length Keap1 protein / full length NRF2 protein (Homo sapiens, UniProt Q14145)" measured_attribute=IC50 measurement="100 to 1000 nM"

Proceed to the following item.
*Q* Which measured IC50 value corresponds to Cn1cc(C2CC2c2c(C(=O)O)cnn2-c2cccc(-c3cccc(OCC4CCCCO4)c3)c2)nn1 (stereo not shown) ?
*A* 100 to 1000 nM

====

- measurement_target: Keap1 Kelch domain (321-609) / TAMRA-labeled 16mer NRF2 peptide (ETGE motif) (Homo sapiens, UniProt Q14145)
- Construct: the Kelch domain (321-609) of Keap1 is used
- Sequence (Q14145 321-609): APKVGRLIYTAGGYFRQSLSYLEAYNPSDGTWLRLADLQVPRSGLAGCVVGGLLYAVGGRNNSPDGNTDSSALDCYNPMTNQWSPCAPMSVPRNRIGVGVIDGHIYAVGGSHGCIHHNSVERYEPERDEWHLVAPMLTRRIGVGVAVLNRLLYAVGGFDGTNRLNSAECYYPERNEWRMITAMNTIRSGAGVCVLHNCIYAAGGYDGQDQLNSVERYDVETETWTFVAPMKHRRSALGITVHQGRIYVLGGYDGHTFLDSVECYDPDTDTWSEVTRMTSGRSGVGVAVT
- assay_summary: NRF2-Keap1 FP Assay (Keap1 Kelch fluorescence polarization)
- protocol_conditions: 20 nM Keap1 (321-609), 8 nM Tamra labeled peptide
Kindly supply the reported IC50 values for the records listed here.

Some compounds with recorded IC50:
compound="C[C@H](Oc1cccc(-c2cccc(-n3ncc(C(=O)O)c3[C@@H]3C[C@H]3c3cn(C)nn3)c2)c1)C1CCCCC1 [Example 64]" measurement="10 to 100 nM"
compound="CC(Oc1ccc(-c2cccc(-n3ncc(C(=O)O)c3[C@H]3C[C@@H]3c3cn(C)nn3)c2)cc1)C1CCCCC1 (mixture of isomers) [Example 241]" measurement="> 10000 nM"
compound="C[C@H](Oc1cccc(-c2cccc(-n3ncc(C(=O)O)c3[C@@H]3C[C@H]3c3cn(C4CNC4)nn3)c2)c1)C1CCCCC1 (racemic) [Example 85]" measurement="10 to 100 nM"
compound="CCCN(CC1CC1)C(=O)c1cccc(-c2cccc(-n3ncc(C(=O)O)c3C3CC3)c2)c1C [Example 16]" measurement="100 to 1000 nM"

Dear colleague, could you please provide IC50 for the compounds listed below?
1. CCCC1CCCCN1C(=O)c1cccc(-c2cccc(-n3ncc(C(=O)O)c3C3CC3)c2)c1F (centres unmarked) [Example 17]
2. CCn1cc(C2CC2c2c(C(=O)O)cnn2-c2cccc(-c3cccc(C(=O)N(C)C)c3)c2)nn1 (centres unmarked) [Example 158]

*A*
["10 to 100 nM", "100 to 1000 nM"]

Dear colleague, could you please provide IC50 for the compounds listed below?
1. Cn1cc(C2CC2c2c(C(=O)O)cnn2-c2cccc(-c3cccc(OC4CCCN(C(=O)OC(C)(C)C)C4)c3)c2)nn1 (centres unmarked) [Example 232]
2. C[C@H]1Cc2ccccc2S(=O)(=O)N(Cc2cccc(-c3cccc(-n4ncc(C(=O)O)c4[C@H]4C[C@@H]4c4cn(C)nn4)c3)c2)C1 [Example 133]
3. CC(C)Oc1cccc(-c2cccc(-n3ncc(C(=O)O)c3C(F)(F)F)c2)c1 [Example 11]
4. CCCC(COc1cccc(-c2cccc(-n3ncc(C(=O)O)c3C3CC3c3cn(C)nn3)c2)c1)C1CCCCC1 (centres unmarked) [Example 172]

*A*
100 to 1000 nM
100 to 1000 nM
1000 to 10000 nM
100 to 1000 nM

Dear colleague, could you please provide IC50 for the compounds listed below?
1. CCCC1CCCN1C(=O)c1cccc(-c2cccc(-n3ncc(C(=O)O)c3C3CC3)c2)c1F (centres unmarked) [Example 26]
2. COC(c1cccc(-c2cccc(-n3ncc(C(=O)O)c3C3CC3c3cn(C)nn3)c2)c1)C1CCCC1 (centres unmarked) [Example 183]
3. CCCC1CCCCN1S(=O)(=O)c1cccc(-c2cccc(-n3ncc(C(=O)O)c3[C@@H]3C[C@H]3c3cn(C)nn3)c2)c1 (mixture of isomers) [Example 142]
4. CC[C@@H]1COc2ccccc2CN1Cc1cccc(-c2cccc(-n3ncc(C(=O)O)c3[C@@H]3C[C@H]3c3cn(C)nn3)c2)c1 [Example 120]

*A*
1. 10 to 100 nM
2. 10 to 100 nM
3. 10 to 100 nM
4. 10 to 100 nM

====

- measurement_target: Keap1 Kelch domain (321-609) / TAMRA-labeled 16mer NRF2 peptide (ETGE motif) (Homo sapiens)
- Construct: the Kelch domain (321-609) of Keap1 is used
- assay_summary: NRF2-Keap1 FP Assay (Keap1 Kelch fluorescence polarization)
- protocol_conditions: 20 nM Keap1 (321-609), 8 nM Tamra labeled peptide
Kindly supply the reported IC50 values for the records listed here.

Some compounds with recorded IC50:
compound="CC1CCCN(C(=O)c2cccc(-c3cccc(-n4ncc(C(=O)O)c4C4CC4)c3)c2F)CC1 (stereo not shown)" measurement="10 to 100 nM"
compound=C[C@H](Oc1cccc(-c2cccc(-n3ncc(C(=O)OCOC(=O)OC(C)(C)C)c3[C@@H]3C[C@H]3c3cn(C)nn3)c2)c1)C1CCCCC1 measurement="> 10000 nM"
compound="Cn1cc(C2CC2c2c(C(=O)O)cnn2-c2cccc(-c3cccc(C(=O)C4CCCCC4)c3)c2)nn1 (stereo not shown)" measurement="10 to 100 nM"
compound="Cn1cc([C@@H]2C[C@H]2c2c(C(=O)O)cnn2-c2cccc(-c3cccc(OCC4CCSCC4)c3)c2)nn1 (racemic)" measurement="100 to 1000 nM"
compound="CC[C@H]1c2ccccc2OCCN1Cc1cccc(-c2cccc(-n3ncc(C(=O)O)c3[C@@H]3C[C@H]3c3cn(C)nn3)c2)c1 (single isomer, unassigned; isomer 2) [Example 121]" measurement="1 to 10 nM"

Dear colleague, could you please provide IC50 for the compounds listed below?
1. Cc1nc(-c2cccc(-c3cccc(-n4ncc(C(=O)O)c4C4CC4)c3)c2)no1
2. Cn1cc([C@H]2C[C@@H]2c2c(C(=O)O)cnn2-c2cccc(-c3cccc(C(=O)N4CCCCCC4)c3F)c2)nn1 (racemic)

*A*
1: > 10000 nM; 2: 10 to 100 nM
